Tested on: TGF-β-stimulated SMAD3 phosphorylation in BEAS-2B cells
measurement protocol: Cellular ALK5 potency assay, inhibition of TGF-β stimulated pSMAD3 formation in BEAS-2B cells
Format: cell-based
assay context: Homo sapiens, pSMAD3, TGF-β 10 ng/mL, read-out: BEAS2B pIC50 (converted)
readout kind: IC50

[Q] Which IC50 is listed for Fc1cc(F)c(-c2ncc(C3CC3)c(Nc3ccnc(Nc4ccc(N5CCNCC5)cc4)n3)n2)cc1Cl ?
[A] 1580 to 10000 nM

[Q] Also check Cc1cccc(-c2nccc(Nc3ccnc(Nc4cnn(C5CCNC5)c4)n3)n2)n1 (stereo not shown)
[A] 200 to 1260 nM

[Q] Also check Cc1cccc(-c2nccc(Nc3ccnc(Nc4ccc(CN5CCN(C(C)(C)C)CC5)cc4)n3)n2)n1
[A] 25.1 to 158 nM

[Q] Also check Cc1cccc(-c2nccc(Nc3ccnc(Nc4cncc(C(=O)O[C@@H]5CCNC5)c4)n3)n2)n1
[A] 25.1 to 158 nM

[Q] Also check Cc1cccc(-c2nccc(Nc3ccnc(Nc4cccc(NC(=O)C5CCNC5)c4)n3)n2)n1 (stereo not shown)
[A] ≤ 20 nM

[Q] Also check Cc1cccc(-c2nccc(Nc3ccnc(Nc4ccc(CN5CCN(C(C)C)CC5)cc4)n3)n2)n1
[A] 25.1 to 158 nM

[Q] Also check Cc1cccc(-c2nccc(Nc3ccnc(Nc4ccc(C(=O)OC5CCNCC5)s4)n3)n2)n1
[A] 25.1 to 158 nM

[Q] Also check Cc1cccc(-c2nccc(Nc3ccnc(Nc4ccc(Cl)c(CN5C[C@@H](C)N[C@@H](C)C5)c4)n3)n2)n1
[A] 25.1 to 158 nM

[Q] Also check Cc1cccc(-c2nccc(Nc3ccnc(Nc4nc(CN5CCC[C@@H](C(=O)O)C5)cs4)n3)n2)n1
[A] 200 to 1260 nM

[Q] Also check COC(=O)CCc1ccc(Nc2nccc(Nc3ccnc(-c4cccc(C)n4)n3)n2)cc1
[A] 200 to 1260 nM

[Q] Also check CNC(=O)[C@@H]1CN(Cc2ccc(Nc3nccc(Nc4ccnc(-c5cccc(C)n5)n4)n3)cc2)CCN1
[A] 25.1 to 158 nM

[Q] Also check Cc1cccc(-c2nc(Nc3ccnc(Nc4ccc(CC(=O)O)cc4)n3)c3cccn3n2)n1
[A] 25.1 to 158 nM

[Q] Also check COC(=O)CC1CN(Cc2ccc(Nc3nccc(Nc4ccnc(-c5cccc(C)n5)n4)n3)cc2)CCN1 (stereo not shown)
[A] 25.1 to 158 nM

[Q] Also check Cc1cccc(-c2nccc(Nc3ccnc(Nc4ccc(CN(C)C)cc4)n3)n2)n1
[A] 25.1 to 158 nM

[Q] Also check COCCc1ccc(Nc2nccc(Nc3ccnc(-c4cccc(C)n4)n3)n2)cc1
[A] 25.1 to 158 nM

[Q] Also check Cc1cccc(-c2nccc(Nc3ccnc(Nc4cnn(CCN)c4)n3)n2)n1
[A] 200 to 1260 nM

###

Would you kindly list Ki for each of these molecules?
target: recombinant human ALK5 (TGF-βR1) protein (Homo sapiens)
Sequence (P36897 34-503): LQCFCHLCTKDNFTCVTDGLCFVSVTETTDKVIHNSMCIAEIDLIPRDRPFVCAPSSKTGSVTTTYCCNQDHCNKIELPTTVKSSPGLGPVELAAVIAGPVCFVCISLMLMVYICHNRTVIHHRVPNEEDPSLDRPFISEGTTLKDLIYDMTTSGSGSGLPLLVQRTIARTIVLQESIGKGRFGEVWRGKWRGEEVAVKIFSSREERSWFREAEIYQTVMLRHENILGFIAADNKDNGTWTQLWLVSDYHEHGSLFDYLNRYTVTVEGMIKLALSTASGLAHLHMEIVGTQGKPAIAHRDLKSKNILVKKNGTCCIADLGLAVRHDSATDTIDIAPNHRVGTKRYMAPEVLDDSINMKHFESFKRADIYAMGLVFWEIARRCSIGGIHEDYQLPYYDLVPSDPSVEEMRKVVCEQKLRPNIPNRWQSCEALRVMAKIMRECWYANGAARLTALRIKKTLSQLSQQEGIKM
measurement protocol: Biochemical ALK5 (TGF-βR1) assay to measure pKi (LANCE Ultra ULight kinase assay)
assay context: apparent pKi, converted from pIC50 by Cheng-Prusoff

[Q] Which Ki is listed for Cc1cccc(-c2nccc(Nc3ccnc(Nc4ccc(C(=O)OC5CNC5)cn4)n3)n2)n1 [Compound 622] ?
[A] 3980 to 31600 pM

[Q] Also check Cc1cccc(-c2nccc(Nc3ccnc(Nc4ccc(NCCN5C[C@@H](C)N[C@@H](C)C5)cc4)n3)n2)n1 [Compound 263]
[A] 39.8 to 316 pM

[Q] Also check Cc1cccc(-c2nccc(Nc3ccnc(Nc4cncc(C(=O)OC[C@@H]5CCNC5)c4)n3)n2)n1 [Compound 570]
[A] 398 to 3160 pM

[Q] Also check Cc1cccc(-c2nccc(Nc3ccnc(Nc4cccc(C(=O)O[C@@H]5CCNC5)c4)n3)n2)n1 [Compound 459]
[A] 398 to 3160 pM

[Q] Also check Cc1cccc(-c2nccc(Nc3ccnc(Nc4ccc(N5CCN[C@@H](C(=O)O)C5)cc4)n3)n2)n1 [Compound 422]
[A] 39.8 to 316 pM

[Q] Also check Cc1cccc(-c2nccc(Nc3ccnc(Nc4cncc(C(=O)OC[C@H]5CCCN5)c4)n3)n2)n1 [Compound 618]
[A] 398 to 3160 pM

[Q] Also check Cc1cccc(-c2nccc(Nc3ccnc(Nc4ccc(CN5CC(CO)C5)cc4)n3)n2)n1 [Compound 266]
[A] 39.8 to 316 pM

[Q] Also check Cc1cccc(-c2nc(Nc3ccnc(Nc4ccc(N5CCOCC5)cc4)n3)ccc2C#N)n1 [Compound 1003]
[A] 3980 to 31600 pM

###

Would you kindly list Ki for each of these molecules?
target: recombinant human ALK5 (TGF-βR1) protein (Homo sapiens, UniProt P36897)
measurement protocol: Biochemical ALK5 (TGF-βR1) assay to measure pKi (LANCE Ultra ULight kinase assay)
assay context: apparent pKi, converted from pIC50 by Cheng-Prusoff

[Q] Which Ki is listed for Cc1cccc(-c2nccc(Nc3ccnc(Nc4ccc5c(c4)CN(C(C)C)CC5)n3)n2)n1 ?
[A] 0.0398 to 0.316 nM

[Q] Also check Cc1cccc(-c2nccc(Nc3ccnc(Nc4ccc(CN5CCS(=O)(=O)CC5)cc4)n3)n2)n1
[A] 0.0398 to 0.316 nM

[Q] Also check COC(=O)c1cc(Nc2nccc(Nc3ccnc(-c4cccc(C)n4)n3)n2)ccc1N1CCNCC1
[A] 0.0398 to 0.316 nM

[Q] Also check Cc1cccc(-c2nccc(Nc3ccnc(Nc4ccc(C(=O)O[C@@H]5CC[C@@H](C)NC5)nc4)n3)n2)n1
[A] 0.0398 to 0.316 nM

[Q] Also check Cc1cccc(-c2nccc(Nc3ccnc(Nc4nc(C(=O)O[C@@H]5CCN(C)C5)cs4)n3)n2)n1
[A] 0.398 to 3.16 nM

[Q] Also check Cc1cccc(-c2nccc(Nc3ccnc(Nc4cccc(C(=O)N5CCOCC5)c4)n3)n2)n1
[A] 0.398 to 3.16 nM

[Q] Also check Cc1cccc(-c2nccc(Nc3ccnc(Nc4cccc(CN5C[C@@H](C)N[C@@H](C)C5)c4)n3)n2)n1
[A] 0.0398 to 0.316 nM

[Q] Also check CNC(=O)[C@@H]1CN(Cc2ccc(Nc3nccc(Nc4ccnc(-c5cccc(C)n5)n4)n3)cc2)CCN1
[A] 0.0398 to 0.316 nM

[Q] Also check Cc1cccc(-c2nccc(Nc3ccnc(Nc4ncc(C(=O)OCC5CNC5)s4)n3)n2)n1
[A] 3.98 to 31.6 nM

[Q] Also check Cc1cccc(-c2nccc(Nc3ccnc(Nc4cccc(C(=O)N5CCN(C(C)C)CC5)c4)n3)n2)n1
[A] 0.398 to 3.16 nM

[Q] Also check Cc1cccc(-c2nccc(Nc3ccnc(Nc4cccc(NC(=O)C5CCN(C6CCOCC6)CC5)c4)n3)n2)n1
[A] 0.0398 to 0.316 nM

[Q] Also check Cc1cccc(-c2nccc(Nc3ccnc(Nc4ccc(C(=O)OC[C@H]5CCCNC5)nc4)n3)n2)n1
[A] 0.0398 to 0.316 nM

[Q] Also check Cc1cccc(-c2nccc(Nc3ccnc(Nc4ccc(CN5C[C@H](C)NC[C@@H]5C)cc4)n3)n2)n1
[A] 0.0398 to 0.316 nM

[Q] Also check Cc1cccc(-c2nccc(Nc3ccnc(Nc4ccc(N5CCN(CC(C)C)CC5)cc4)n3)n2)n1
[A] 0.0398 to 0.316 nM

[Q] Also check Cc1cccc(-c2nccc(Nc3ccnc(Nc4ncc(C(=O)OC5CNC5)s4)n3)n2)n1
[A] 3.98 to 31.6 nM

###

Tested on: TGF-β-stimulated SMAD3 phosphorylation in BEAS-2B cells
measurement protocol: Cellular ALK5 potency assay, inhibition of TGF-β stimulated pSMAD3 formation in BEAS-2B cells
Assay type: cell-based
assay context: Homo sapiens, pSMAD3, TGF-β 10 ng/mL, read-out: BEAS2B pIC50 (converted)
readout kind: IC50

[Q] Which IC50 is listed for CNC(=O)[C@H]1CN(c2ccc(Nc3nccc(Nc4ccnc(-c5cccc(C)n5)n4)n3)cc2)CCN1 ?
[A] 25.1 to 158 nM

[Q] Also check Cc1cccc(-c2nccc(Nc3ccnc(Nc4ccc(C5=CCNCC5)cc4)n3)n2)n1
[A] ≤ 20 nM

[Q] Also check CNC1CCN(c2ccc(Nc3nccc(Nc4ccnc(-c5ccccc5F)n4)n3)cc2)CC1
[A] 25.1 to 158 nM

[Q] Also check Cc1cccc(-c2nccc(Nc3ccnc(Nc4nc(C(=O)OC[C@@H]5CCNC5)cs4)n3)n2)n1
[A] 200 to 1260 nM
